Values were extracted from PubChem BioAssay (EPA / NIEHS).

Assay: BSK_SAg_SRB: Viability Assessment in the BioMAP Diversity Plus: SAg Assay (AID 2283096);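 also: cells read one day after compound addition; hits may be either gain or loss of signal compared with DMSO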
Details: primary human HUVEC with PBMC
Activity calls are given as the source filed them. The calls were made as follows: active = hit-call score of the fitted dose curve at least 0.9, where 1 is the maximum; inactive = score below 0.9.
Choose one outcome from this list and give only that: active, inactive

Worked cases, answers included:
CCCCC(CC)COP(=O)(OCC(CC)CCCC)OCC(CC)CCCC (configuration not stated) = active
Cc1cn([C@H]2C=C[C@@H](CO)O2)c(=O)[nH]c1=O = inactive
O=Cc1ccccc1C=O = inactive

Which outcome did this test record for the compound C#CC(O)C(CC)CCCC (configuration not stated) ?
inactive

----------
Read-out: Ezrin (EZR), EZR (gene 7430)
Experiment: LTEA_HepaRG_EZR: Life Technologies and Expression Analysis (LTEA) Assay for Ezrin (EZR) using HepaRG (AID 2283491)
Settings: mRNA level, 48 h; actives raise or lower the signal
Activity calls are given as the source filed them. Rule for the calls: active = hit-call score of the fitted dose curve at least 0.9, where 1 is the maximum; inactive = score below 0.9.
Give your call using only these classes: active, inactive

Called result for CC(=O)O[C@]1(C(C)=O)CC[C@H]2[C@@H]3C=C(Cl)C4=CC(=O)[C@@H]5C[C@@H]5[C@]4(C)[C@H]3CC[C@@]21C
inactive

Just curious, what result did Nc1nc(=S)c2[nH]cnc2[nH]1 get here?
active

In this assay, the call recorded for CC(=O)OC1CC(C)OC(C)O1 (stereo not drawn) was what?
inactive

Identify the outcome logged in this assay for the molecule shown: CC(=O)O
inactive

Recorded test call requested for CCc1nc(N)nc(N)c1-c1ccc(Cl)cc1
inactive

Outcome logged for CCC(C)N(C)C(=O)c1cc2ccccc2c(-c2ccccc2Cl)n1 (stereo not drawn) in this assay:
inactive

Could you kindly confirm the outcome this assay logged for COc1ccc(OC(F)(F)F)cc1CN[C@H]1CCCN[C@H]1c1ccccc1 ?
inactive

# outcome recorded in this test, key = c1ccc2occc2c1
inactive
